# testedTarget: T1, Human C3 (Complement tech cat #A113c) (human, UniProt P01024 23-1663)
# T1 construct: Purified protein immobilised by amine coupling in the SPR assay; in the haemolysis assay it is the C3 of diluted human serum; Native C3 consists of a beta and an alpha chain cut from one precursor; also called C3 protein
# T1 sequence (P01024 23-1663 limits assumed): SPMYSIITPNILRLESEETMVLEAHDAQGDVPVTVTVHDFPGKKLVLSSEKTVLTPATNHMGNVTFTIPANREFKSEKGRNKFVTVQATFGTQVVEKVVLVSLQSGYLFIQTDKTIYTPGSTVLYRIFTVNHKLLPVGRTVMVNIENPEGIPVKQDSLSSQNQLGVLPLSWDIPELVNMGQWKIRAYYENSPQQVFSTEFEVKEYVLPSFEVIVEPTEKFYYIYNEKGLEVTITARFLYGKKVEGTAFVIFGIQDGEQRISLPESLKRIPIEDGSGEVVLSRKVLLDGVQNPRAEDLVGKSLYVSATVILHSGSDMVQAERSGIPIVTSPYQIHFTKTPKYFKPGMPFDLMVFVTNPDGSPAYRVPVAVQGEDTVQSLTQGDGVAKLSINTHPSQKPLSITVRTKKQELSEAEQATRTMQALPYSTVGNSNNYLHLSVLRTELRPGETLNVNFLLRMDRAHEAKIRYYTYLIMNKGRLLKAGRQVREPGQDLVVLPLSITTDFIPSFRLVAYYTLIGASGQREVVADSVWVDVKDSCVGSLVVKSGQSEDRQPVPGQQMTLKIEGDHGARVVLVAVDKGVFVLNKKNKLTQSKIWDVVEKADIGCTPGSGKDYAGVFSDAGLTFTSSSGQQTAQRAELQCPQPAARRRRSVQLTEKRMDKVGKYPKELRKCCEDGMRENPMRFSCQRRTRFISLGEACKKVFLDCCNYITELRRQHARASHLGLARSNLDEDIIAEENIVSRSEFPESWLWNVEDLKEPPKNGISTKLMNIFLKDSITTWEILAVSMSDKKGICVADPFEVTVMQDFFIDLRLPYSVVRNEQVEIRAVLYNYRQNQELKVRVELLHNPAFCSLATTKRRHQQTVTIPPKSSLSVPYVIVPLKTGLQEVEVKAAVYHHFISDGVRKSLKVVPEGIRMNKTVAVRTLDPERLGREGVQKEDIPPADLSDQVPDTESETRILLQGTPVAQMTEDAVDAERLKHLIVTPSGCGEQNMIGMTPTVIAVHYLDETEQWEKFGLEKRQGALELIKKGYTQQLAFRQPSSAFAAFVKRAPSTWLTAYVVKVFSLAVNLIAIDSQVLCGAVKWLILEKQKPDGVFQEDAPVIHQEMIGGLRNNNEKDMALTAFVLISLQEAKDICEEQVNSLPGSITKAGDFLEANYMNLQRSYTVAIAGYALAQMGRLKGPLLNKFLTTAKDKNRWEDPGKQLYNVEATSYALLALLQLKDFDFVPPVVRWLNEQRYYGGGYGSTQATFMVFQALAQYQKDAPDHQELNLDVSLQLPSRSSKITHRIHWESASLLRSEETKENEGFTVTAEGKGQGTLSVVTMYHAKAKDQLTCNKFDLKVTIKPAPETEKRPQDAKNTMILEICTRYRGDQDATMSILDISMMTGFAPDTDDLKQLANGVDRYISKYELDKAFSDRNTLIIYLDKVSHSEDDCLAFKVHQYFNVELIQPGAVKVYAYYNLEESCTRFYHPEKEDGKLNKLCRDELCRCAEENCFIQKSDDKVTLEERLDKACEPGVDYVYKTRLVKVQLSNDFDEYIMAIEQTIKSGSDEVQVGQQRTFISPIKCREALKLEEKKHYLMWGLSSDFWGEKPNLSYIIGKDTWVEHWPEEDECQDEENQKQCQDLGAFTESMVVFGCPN
# experiment: SPR (Biacore T200), human C3 immobilised, peptide injected, 1:1 fit
Positions of bridges follow the written chain, without caps; N, C: chain ends. Non-standard residues stand in square brackets, D forms with d. No end group written: not given here. *: point of attachment. Trp(1-Me) = Cn1cc(C[C@H](N)C(=O)O)c2ccccc21; C16 diacid = O=C(O)CCCCCCCCCCCCCCC(=O)*; Sar = CNCC(=O)O
I'd appreciate it if you could supply Kd values for the items below.
One number for each entry, in nM.

binder="Ac-SEFCI[Trp(1-Me)]QDWGEHRCTEGE (disulfide 4-14; not fully specified (C-terminus); printed as Ac-SEFC(1)I[1-Me-Trp]QDWGEHRC(1)TEGE[Peg3]ES-K([17-carboxy-heptadecanoyl][γGlu])-NH2) [Compound 142]" val=4.8
binder="Ac-ICIWQDWGEHSCT-NH2 (disulfide 2-12; SMILES CC[C@H](C)[C@H](NC(C)=O)C(=O)N[C@H]1CSSC[C@@H](C(=O)N[C@H](C(N)=O)[C@@H](C)O)NC(=O)[C@H](CO)NC(=O)[C@H](Cc2c[nH]cn2)NC(=O)[C@H](CCC(=O)O)NC(=O)CNC(=O)[C@H](Cc2c[nH]c3ccccc23)NC(=O)[C@H](CC(=O)O)NC(=O)[C@H](CCC(N)=O)NC(=O)[C@H](Cc2c[nH]c3ccccc23)NC(=O)[C@H]([C@@H](C)CC)NC1=O) [Compound 20]" val=37

Then this binder:
Look up Kd for this binder: {C16 diacid}-EGSEYCI[Trp(1-Me)]QDWGEHRC[Sar]E-NH2 (disulfide 6-16; also: places 15-carboxy-pentadecanoyl on side chain of Glu1, mods on N-terminus) [Compound 107]
6.1

Sourced from patent US11965039B2
